Target: human TLR7 (Homo sapiens (Human))
Sequence (Q9NYK1 27-1049): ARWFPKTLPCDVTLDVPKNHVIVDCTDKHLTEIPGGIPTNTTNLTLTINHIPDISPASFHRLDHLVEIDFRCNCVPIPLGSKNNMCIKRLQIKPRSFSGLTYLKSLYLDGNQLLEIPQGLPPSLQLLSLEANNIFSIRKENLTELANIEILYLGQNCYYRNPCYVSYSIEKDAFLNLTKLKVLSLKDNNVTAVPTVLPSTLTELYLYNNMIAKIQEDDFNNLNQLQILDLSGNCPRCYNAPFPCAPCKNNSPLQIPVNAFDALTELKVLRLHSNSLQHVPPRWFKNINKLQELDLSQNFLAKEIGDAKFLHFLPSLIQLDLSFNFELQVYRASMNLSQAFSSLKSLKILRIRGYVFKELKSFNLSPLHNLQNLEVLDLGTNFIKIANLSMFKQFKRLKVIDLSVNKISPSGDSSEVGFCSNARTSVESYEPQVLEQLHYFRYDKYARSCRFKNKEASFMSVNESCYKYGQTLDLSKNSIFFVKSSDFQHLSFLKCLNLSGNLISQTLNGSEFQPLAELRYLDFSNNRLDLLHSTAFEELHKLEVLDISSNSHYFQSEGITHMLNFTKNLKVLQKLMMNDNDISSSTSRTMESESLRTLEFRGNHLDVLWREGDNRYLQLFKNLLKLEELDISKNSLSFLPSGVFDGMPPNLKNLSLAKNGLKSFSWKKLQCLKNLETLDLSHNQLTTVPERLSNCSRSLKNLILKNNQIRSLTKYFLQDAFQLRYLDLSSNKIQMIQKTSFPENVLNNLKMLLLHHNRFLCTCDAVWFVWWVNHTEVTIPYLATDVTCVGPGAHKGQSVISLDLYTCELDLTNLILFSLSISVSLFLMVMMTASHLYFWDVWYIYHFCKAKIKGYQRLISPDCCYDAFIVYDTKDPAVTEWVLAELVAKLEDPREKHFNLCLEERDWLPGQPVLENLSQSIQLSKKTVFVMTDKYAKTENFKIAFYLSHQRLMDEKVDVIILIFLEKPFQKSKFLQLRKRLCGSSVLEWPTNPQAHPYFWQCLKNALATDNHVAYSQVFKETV
Assay: TLR7 inhibition reporter assay (HEK-Blue cells, SEAP reporter, gardiquimod stimulation)
Format: cell-based
Conditions: HEK-Blue cells overexpressing human TLR7, gardiquimod 7.5 μM
pIC50: −log10 of the molar value.
reported property: pIC50

| compound | reported result |
| --- | --- |
| Cc1cc(-c2[nH]c3ccc(C4CCN(Cc5cn[nH]c5)CC4)cc3c2C(C)C)cc(C)n1 | 8.92 |
| Cc1cc(-c2[nH]c3ccc(C4CCN(C(=O)CN(C)C)CC4)cc3c2C(C)C)c(F)cn1 | 8.59 |

1. COCCOC(=O)N1CCC(c2ccc3[nH]c(-c4ccnc(C)c4)c(C(C)C)c3c2)CC1
2. Cc1c(-c2ccncc2)[nH]c2ccc(C3CCN(C4CCN(CC(C)C)CC4)CC3)cc12
3. Cc1cc(-c2[nH]c3ccc(C4CCN(CCC(N)=O)CC4)cc3c2C(C)C)cc(C)n1
4. Cc1cc(-c2[nH]c3ccc(C4CCN(C(=O)CN5C(C)CCC5C)CC4)cc3c2C(C)C)cc(C)n1 (stereo not drawn)
5. Cc1cc(-c2[nH]c3ccc(C4CCN(C(=O)CNCC(C)(C)O)CC4)cc3c2C(C)C)cc(C)n1
Sort by pIC50, descending. Respond with the label ranking, as requested.
3, 4, 5, 1, 2

a. Cc1cc(-c2[nH]c3ccc(C4CCN(C(=O)CN(C)C)CC4)cc3c2C(C)C)c(F)c(C)n1
b. CCc1c(-c2ccnc(OC)c2)[nH]c2ccc(C3CCN(C4CCN(C(C)C)CC4)CC3)cc12
Out of a and b , name the one with the higher pIC50. Answer by stating the label of the chosen item.
a

###

Molecular target: UniProt:Q9NYK1
Test: TLR7 inhibition reporter assay (HEK-Blue cells, SEAP reporter, gardiquimod stimulation)
Format: cell-based
Settings: HEK-Blue cells overexpressing human TLR7, gardiquimod 7.5 μM
pIC50: −log10 of the molar value.
reported property: pIC50

| compound | reported result |
| --- | --- |
| Cc1cc(-c2[nH]c3ccc(C4CCN(S(=O)(=O)CC(F)(F)F)CC4)cc3c2C(C)C)ccn1 | 6.79 |

P. CC(C)c1c(-c2cc(C3CC3)ncc2F)[nH]c2ccc(C3CCN(C(=O)C4CC(=O)N(C)C4)CC3)cc12 (centres unmarked)
Q. CNC(=O)CN1CCC(c2ccc3[nH]c(-c4cc(C)ncc4C)c(C(C)C)c3c2)CC1
Out of P and Q , name the one with the higher pIC50. Answer by stating the label of the chosen item.
Q

###

Biological target: UniProt:Q9NR97
Sequence (Q9NR97 27-1041): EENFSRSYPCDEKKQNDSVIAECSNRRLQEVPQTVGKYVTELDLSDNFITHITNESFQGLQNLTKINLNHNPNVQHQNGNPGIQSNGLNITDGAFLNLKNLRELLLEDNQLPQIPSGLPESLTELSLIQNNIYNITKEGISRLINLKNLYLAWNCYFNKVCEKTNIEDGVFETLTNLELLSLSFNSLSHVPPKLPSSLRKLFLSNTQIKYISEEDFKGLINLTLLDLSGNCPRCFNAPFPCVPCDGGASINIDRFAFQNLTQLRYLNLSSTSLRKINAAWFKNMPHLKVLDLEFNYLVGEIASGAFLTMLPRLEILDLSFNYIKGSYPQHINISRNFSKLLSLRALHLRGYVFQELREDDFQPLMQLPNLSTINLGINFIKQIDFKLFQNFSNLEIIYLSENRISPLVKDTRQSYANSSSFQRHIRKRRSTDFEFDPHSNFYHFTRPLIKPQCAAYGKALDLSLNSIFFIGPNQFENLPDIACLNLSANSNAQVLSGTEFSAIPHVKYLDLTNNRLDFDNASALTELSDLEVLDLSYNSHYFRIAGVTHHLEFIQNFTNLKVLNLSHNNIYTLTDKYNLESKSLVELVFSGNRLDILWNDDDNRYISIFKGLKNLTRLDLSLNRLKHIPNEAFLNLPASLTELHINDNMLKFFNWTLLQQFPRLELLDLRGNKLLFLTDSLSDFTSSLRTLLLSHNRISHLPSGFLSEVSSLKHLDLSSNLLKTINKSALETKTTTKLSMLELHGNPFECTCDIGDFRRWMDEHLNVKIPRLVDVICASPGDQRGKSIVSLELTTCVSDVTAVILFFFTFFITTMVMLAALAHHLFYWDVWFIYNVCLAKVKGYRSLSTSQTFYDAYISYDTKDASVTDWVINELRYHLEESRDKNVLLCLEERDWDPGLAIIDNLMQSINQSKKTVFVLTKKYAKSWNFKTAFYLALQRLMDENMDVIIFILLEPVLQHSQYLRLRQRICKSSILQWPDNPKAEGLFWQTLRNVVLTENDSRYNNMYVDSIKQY
Assay: TLR8 inhibition reporter assay (HEK-Blue cells, SEAP reporter, R848 stimulation);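 note: compounds tested from 0.05 nM to 50 µM, 22 h at 37 °C, SEAP measured with HEK-Blue Detection, inhibition relative to agonist plus DMSO versus a known inhibitor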
Conditions: read-out: TLR8 IC50, HEK-Blue cells overexpressing human TLR8, R848 15.9 μM
reported property: IC50 (nM)

A. Cc1cc(-c2[nH]c3ccc(C4CCN(CC(=O)NC5(C)CCC5)CC4)cc3c2C(C)C)cc(C)n1 [Example 243]
B. Cc1cc(-c2[nH]c3ccc(C4CCN(CC(C)O)CC4)cc3c2C(C)C)cc(C)n1 (stereo not drawn) [Example 331]
Out of A and B , name the one with the higher IC50. Answer by stating the label of the chosen item.
A

A. CCc1c(-c2ccnc(OC(C)C)c2)[nH]c2ccc(C3CCN(C4CCN(CC(C)C)CC4)CC3)cc12 [Example 769]
B. CCC(C)CN(CCO)CC(=O)N1CCC(c2ccc3[nH]c(-c4cc(C)nc(C)c4)c(C(C)C)c3c2)CC1 (stereo not drawn) [Example 406]
Please indicate which has the smaller reported IC50: A , or B . Answer by stating the label of the chosen item.
B

I. Cc1cc(-c2[nH]c3ccc(C4CCN(C(=O)CCC5CCNCC5)CC4)cc3c2C(C)C)ccn1 [Example 568]
II. Cc1cc(-c2[nH]c3ccc(C4CCN(S(=O)(=O)C5CC5)CC4)cc3c2C(C)C)ccn1 [Example 555]
Out of I and II , name the one with the higher IC50. Answer by stating the label of the chosen item.
II
(II: 92.1 nM, I: 13.6 nM)
